Biological target: 17β-HSD10 (Homo sapiens, UniProt Q99714)
Construct: Histev (histidine tag with TEV site) (N, cleaved yes); made in house; host or cells: E. coli BL21-CodonPlus
Sequence (Q99714 1-261): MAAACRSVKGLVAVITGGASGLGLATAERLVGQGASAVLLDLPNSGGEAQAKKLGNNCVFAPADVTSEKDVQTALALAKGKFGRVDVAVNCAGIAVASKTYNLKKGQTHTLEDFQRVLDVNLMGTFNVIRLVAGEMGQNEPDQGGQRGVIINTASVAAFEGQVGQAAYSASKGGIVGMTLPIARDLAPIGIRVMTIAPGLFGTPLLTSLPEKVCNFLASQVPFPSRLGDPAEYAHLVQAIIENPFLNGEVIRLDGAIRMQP
Test: 17β-HSD10 (ABAD) enzyme inhibition assay, NADH oxidation read at 340 nm (primary screen and dose response)
Assay type: biochemical
Details: recombinant 17βHSD10 enzyme assay
measurement kind: Max. Effect (%)
A number alone suffices; assume %.

>  <compound>
CC(C)CN(C(=O)c1ccccc1S(C)(=O)=O)c1cccc(N(C)Cc2c[nH]cn2)c1

>  <study system>
17β-HSD10 (Homo sapiens, UniProt Q99714)

>  <reading unit>
%

>  <Max. Effect (%)>
76

$$$$

IN: Return reported Max. Effect (%). Input compound: COc1ccc(-c2ccccc2[C@H]2CCCN2C(=O)c2ccc(C)cc2)cn1 (stereo in doubt)
OUT: 13

IN: Read off the recorded Max. Effect (%) for O=C(c1ccncc1)N1CCC[C@H]1c1ccccc1
OUT: 22.3

IN: Fill in Max. Effect (%) for record CC(C)CN(C(=O)c1c(F)cccc1F)c1cccc(N(C)Cc2c[nH]cn2)c1
OUT: 97

IN: Check the records and state Max. Effect (%) for CC(C)CN(C(=O)c1ccccc1F)c1cccc(N(C)Cc2c[nH]c(C(C)C)n2)c1
OUT: 45
